- System: NCI-H460 lung
- Measurement Notes: NCI-60 one-dose screen, 48 h
- Particulars: 10 µM unless noted
- Experimental: Growth inhibition of the NCI-H460 human Non-Small Cell Lung tumor cell line is measured as a screen for anti-cancer activity. Cells are grown in 96 well plates and exposed to the test compound for 48 hours. Compounds are tested at a single concentration, which is 10^-5 M for most compounds. The reported endpoint is percent growth (GI% or GIPRCNT), where numbers from 0 - 100% represent growth inhibition, and numbers from -100% - 0 represent cell death. […]
Compounds without any hit were thinned out: in the full panel of roughly 83,000, 20% have a hit. Calls of active or inactive are those of the source. Rule for the calls: active = growth percent below 10; inactive = the rest.
Hi there, use one of these labels in your reply, thanks! YES (active), NO (inactive)

Outcome logged for `COc1ccc(NC2=C(I)C(=O)c3ncccc3C2=O)cc1` in this assay:
YES

Assay outcome for `COc1cc(/C=C/C(=O)c2ccc(F)cc2)ccc1OCCCCOc1ccc(/C=C/C(=O)c2c(C)nc3ccccc3c2C)cc1OC` : what was it?
NO

Which result was noted for this compound in the test: `O=C(Nc1cccc(-c2ccc(N3CCOCC3)nn2)c1)Nc1cccc(C(F)(F)F)c1`
NO

Lab log entry: `c1cc2c(ccc3[nH]c(-c4ccc5[nH]ncc5c4)c4c(c32)CCCC4)n1` — outcome as called in the assay?
NO

Answer briefly: the call reported for `Cc1ccc2c(c1)=C/C(=C\c1cc(-c3ccccc3)oc1O)C(=O)N=2` in this assay.
NO
